EC50: recorded values
studySystem: human TLR7 (Homo sapiens)
protocolSummary: HEK-Blue human TLR7 cells NF-κB SEAP reporter assay
experimentalContext: stimulation for 20 hours, Quanti Blue 640 nm
resultType: EC50

> print(dat)
                                   compound  resulttype   reading
1  CCCN(CCC)C(=O)C1=Cc2ccc(C(=O)NCc3cncs3)cc2N=C(N)C1        EC50     52 µM
2  CCCN(CCC)C(=O)C1=Cc2ccc(C(=O)NC3CN(c4ccccc4)C3)cc2N=C(N)C1        EC50  > 100 µM
3  CCCN(CC1CC1)C(=O)C1=Cc2ccc(C(=O)NC3C[C@H]3c3ccccc3)cc2N=C(N)C1 (some centres unmarked)        EC50     14 µM
4  CCCN(CCC)C(=O)C1=Cc2ccc(C(=O)NCCCc3cccnc3)cc2N=C(N)C1        EC50  > 100 µM
5  CCCN(CCC)C(=O)C1=Cc2ccc(C(=O)NC3CCC(CNc4ccccc4)CC3)cc2N=C(N)C1 (centres unmarked)        EC50  > 100 µM
6  CCCN(CCC)C(=O)C1=Cc2ccc(C(=O)NC3(c4ccccc4)CCOCC3)cc2N=C(N)C1        EC50  > 100 µM
7  CCCN(CCC)C(=O)C1=Cc2ccc(C(=O)NC3CCCC3)cc2N=C(N)C1        EC50  > 100 µM
8  CCCN(CCC)C(=O)C1=Cc2ccc(C(=O)NCCc3cccnc3)cc2N=C(N)C1        EC50  > 100 µM

###

studySystem: human TLR7 (Homo sapiens, UniProt Q9NYK1)
Sequence (Q9NYK1 27-1049): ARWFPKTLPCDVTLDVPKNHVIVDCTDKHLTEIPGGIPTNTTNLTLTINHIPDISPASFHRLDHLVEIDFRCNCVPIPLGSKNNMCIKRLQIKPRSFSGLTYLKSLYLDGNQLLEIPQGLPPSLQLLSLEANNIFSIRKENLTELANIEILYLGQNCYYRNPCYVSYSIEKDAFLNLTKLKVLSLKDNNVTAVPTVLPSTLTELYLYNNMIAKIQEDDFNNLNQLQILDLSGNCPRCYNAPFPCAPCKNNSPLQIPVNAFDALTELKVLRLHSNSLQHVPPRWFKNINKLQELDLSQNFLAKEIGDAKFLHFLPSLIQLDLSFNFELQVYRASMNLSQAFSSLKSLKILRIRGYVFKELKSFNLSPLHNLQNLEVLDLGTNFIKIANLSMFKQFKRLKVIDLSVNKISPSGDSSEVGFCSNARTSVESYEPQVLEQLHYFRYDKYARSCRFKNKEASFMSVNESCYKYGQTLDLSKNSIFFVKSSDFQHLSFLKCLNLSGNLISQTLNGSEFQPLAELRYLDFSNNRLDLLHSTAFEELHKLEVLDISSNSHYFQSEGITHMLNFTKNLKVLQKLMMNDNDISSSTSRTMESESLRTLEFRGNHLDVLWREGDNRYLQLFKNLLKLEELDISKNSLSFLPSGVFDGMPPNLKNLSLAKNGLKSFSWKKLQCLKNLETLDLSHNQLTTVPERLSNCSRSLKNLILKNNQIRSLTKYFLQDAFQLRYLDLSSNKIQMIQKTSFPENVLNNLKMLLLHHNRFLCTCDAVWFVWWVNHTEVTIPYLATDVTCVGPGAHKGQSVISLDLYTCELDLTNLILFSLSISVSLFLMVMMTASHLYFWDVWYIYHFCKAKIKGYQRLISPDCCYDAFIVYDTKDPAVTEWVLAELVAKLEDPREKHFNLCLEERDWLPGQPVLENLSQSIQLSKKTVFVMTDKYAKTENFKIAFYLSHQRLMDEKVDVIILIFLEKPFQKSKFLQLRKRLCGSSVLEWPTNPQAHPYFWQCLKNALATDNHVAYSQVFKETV
protocolSummary: HEK-Blue human TLR7 cells NF-κB SEAP reporter assay
experimentalContext: stimulation for 20 hours, Quanti Blue 640 nm
EC50: recorded values
resultType: EC50 (µM)

> print(dat)
                                    compound                               studysystem  comparisonoperator  reading
 1  CCCN(CCC)C(=O)C1=Cc2ccc(C(=O)NC3(c4ccccc4)CC3)cc2N=C(N)C1 [Example 5]  human TLR7 (Homo sapiens, UniProt Q9NYK1)                   >      100
 2  CCCN(CCC)C(=O)C1=Cc2ccc(C(=O)NC(C)(C)C)cc2N=C(N)C1 [Example 16]  human TLR7 (Homo sapiens, UniProt Q9NYK1)                   =       50
 3  CCCN(CCC)C(=O)C1=Cc2ccc(C(=O)NC(C)(C)c3ccccc3)cc2N=C(N)C1 [Example 13]  human TLR7 (Homo sapiens, UniProt Q9NYK1)                   =       14
 4  CCCN(CCC)C(=O)C1=Cc2ccc(C(=O)N[C@H]3C[C@@H]3c3ccccc3)cc2N=C(N)C1 [Example 1]  human TLR7 (Homo sapiens, UniProt Q9NYK1)                   =      7.9
 5  CCCN(CCC)C(=O)C1=Cc2ccc(C(=O)NC3CC(CNc4ccccc4)C3)cc2N=C(N)C1 (centres unmarked) [Example 27]  human TLR7 (Homo sapiens, UniProt Q9NYK1)                   >      100
 6  CCCN(CCC)C(=O)C1=Cc2ccc(C(=O)NC3(c4ccccc4)CCC3)cc2N=C(N)C1 [Example 6]  human TLR7 (Homo sapiens, UniProt Q9NYK1)                   =       13
 7  CCCN(CCC)C(=O)C1=Cc2ccc(C(=O)NCc3ccon3)cc2N=C(N)C1 [Example 8]  human TLR7 (Homo sapiens, UniProt Q9NYK1)                   =       40
 8  CCCN(CCC)C(=O)C1=Cc2ccc(C(=O)NC(c3ccccc3)c3ccccc3)cc2N=C(N)C1 [Example 10]  human TLR7 (Homo sapiens, UniProt Q9NYK1)                   >      100
 9  CCCN(CCC)C(=O)C1=Cc2ccc(C(=O)NCc3ccccc3)cc2N=C(N)C1 [Example 18]  human TLR7 (Homo sapiens, UniProt Q9NYK1)                   =       25
10  CCCN(CCC)C(=O)C1=Cc2ccc(C(=O)NCc3nccs3)cc2N=C(N)C1 [Example 12]  human TLR7 (Homo sapiens, UniProt Q9NYK1)                   =       42
11  CCCN(CCC)C(=O)C1=Cc2ccc(C(=O)NCc3cccnc3)cc2N=C(N)C1 [Example 19]  human TLR7 (Homo sapiens, UniProt Q9NYK1)                   =       49
12  CCCN(CCC)C(=O)C1=Cc2ccc(C(=O)NC3CCCN(c4ccccc4)C3)cc2N=C(N)C1 (centres unmarked) [Example 23]  human TLR7 (Homo sapiens, UniProt Q9NYK1)                   >      100
13  CCCN(CCC)C(=O)C1=Cc2ccc(C(=O)N[C@H]3CCN(c4ccccc4)C3)cc2N=C(N)C1 [Example 25]  human TLR7 (Homo sapiens, UniProt Q9NYK1)                   >      100
14  CCCN(CCC)C(=O)C1=Cc2ccc(C(=O)N[C@@H](C)c3ccccc3)cc2N=C(N)C1 [Example 7]  human TLR7 (Homo sapiens, UniProt Q9NYK1)                   =       17
15  CCCN(CCC)C(=O)C1=Cc2ccc(C(=O)NC3CCC3)cc2N=C(N)C1 [Example 17]  human TLR7 (Homo sapiens, UniProt Q9NYK1)                   >      100
16  CCCN(CCC)C(=O)C1=Cc2ccc(C(=O)NC3CCN(c4ccccc4)CC3)cc2N=C(N)C1 [Example 2]  human TLR7 (Homo sapiens, UniProt Q9NYK1)                   =       10
17  CCCN(CCC)C(=O)C1=Cc2ccc(C(=O)NC3CCCCC3)cc2N=C(N)C1 [Example 4]  human TLR7 (Homo sapiens, UniProt Q9NYK1)                   =       34
